- Tested on: U251 CNS
- measurement description: NCI-60 one-dose screen, 48 h (100 = growth as untreated, 0 = no growth, -100 = all killed)
- condition label: 10 µM unless noted
The panel holds about 83,000 compounds, 20% with a hit somewhere; the sample as a whole holds those more often.
Lab note: class by growth, see one: < 20%; two: ≥ 20% and < 80%; three: ≥ 80%

compound	target or system	class label
Cc1cc(=O)oc2cc(OCc3nn4c(Nc5nc6ccccc6s5)c(-c5ccccc5)nc4s3)ccc12	U251 CNS	three
N#Cc1c(-c2ccc(Cl)cc2)c(C#N)c2c(C#N)c(N)nn2c1N	U251 CNS	three
Clc1ccc(/C=N\N=C\c2ccc(Cl)c(Cl)c2)cc1Cl	U251 CNS	two
O=S(=O)(NCCNc1nccc(-c2c(-c3ccc(F)c(O)c3)nc3sccn23)n1)c1ccc(O)cc1	U251 CNS	two
Oc1c(I)cc(I)cc1CNCCN(Cc1ccccn1)Cc1ccccn1	U251 CNS	one
Nc1nc(-c2ccc(Cl)cc2)nc2c1sc(=S)n2-c1ccccc1	U251 CNS	one
O=S(=O)(Nc1cc(F)cc(Cl)c1)c1ccc(-c2cnc(C3CC3)o2)cc1	U251 CNS	two
CC(C)c1ccc(C(=O)Nc2nc3ccc(O)c(CN(C)C)c3s2)cc1	U251 CNS	two
COc1cc2c(cc1OCCCN1CCN(CCCOc3cc4c(cc3OC)C(=O)N3CCC[C@H]3C=N4)CC1)C=CC(C)(C)O2	U251 CNS	one
COc1ccc(Nc2ncc(Br)c(NCCCNC(=O)C3CCCC3)n2)cc1	U251 CNS	two
Cc1c2cnccc2c(C)c2c1c1cc(C#N)ccc1n2C	U251 CNS	one
C=C(C)[C@@H]1CC[C@]2(C(=O)N3CCOCC3)CC[C@]3(C)[C@H](CC[C@@H]4[C@@]5(C)C/C(=C/c6ccncc6)C(=O)C(C)(C)[C@@H]5CC[C@]43C)[C@@H]12	U251 CNS	two
O=S(=O)(NCCNc1nccc(-c2c(-c3ccc(F)c(O)c3)nc3occn23)n1)c1ccc(Cl)cc1	U251 CNS	three
COC1=CC(c2ccc[nH]2)=N/C1=C\c1[nH]c(C)c(CC(=O)OCc2ccccc2)c1CCC(=O)OCc1ccccc1	U251 CNS	one
O=C(CN1CCOCC1)Nc1nc(-c2cc3ccccc3oc2=O)cs1	U251 CNS	three
C1CCC([PH+](C2CCCCC2)C2CCCCC2[PH+](C2CCCCC2)C2CCCCC2)CC1.[Au].[CH-]1CCCCC1C1CCCC[N-]1 (configuration not stated)	U251 CNS	one

Data origin, for the record: PubChem BioAssay (NCI)
